# EXPERIMENT_DESCRIPTION: in vivo
# COND: rat, iv, 1 mg/kg
METRIC_NAME: half-life (h)

[[record]]
smiles_text = "CCCCCCCCOc1c(Br)cc(CNCCCP(=O)(O)O)cc1OC"
measured_value = 2.1


* * *

# EXPERIMENT_DESCRIPTION: in vivo
# COND: rat, plasma, iv, 1 mg/kg
METRIC_NAME: clearance

[[record]]
smiles_text = "CCCCCCCCOc1c(Br)cc(CNCCCP(=O)(O)O)cc1OC"
measured_value = "9.2 mL/min/kg"

